Recorded measurements of IC50, one per entry
- TARGET_DESC: rhMAO-A (Homo sapiens, UniProt P21397)
- Construct: purchased Sigma
- Sequence (P21397 whole entry): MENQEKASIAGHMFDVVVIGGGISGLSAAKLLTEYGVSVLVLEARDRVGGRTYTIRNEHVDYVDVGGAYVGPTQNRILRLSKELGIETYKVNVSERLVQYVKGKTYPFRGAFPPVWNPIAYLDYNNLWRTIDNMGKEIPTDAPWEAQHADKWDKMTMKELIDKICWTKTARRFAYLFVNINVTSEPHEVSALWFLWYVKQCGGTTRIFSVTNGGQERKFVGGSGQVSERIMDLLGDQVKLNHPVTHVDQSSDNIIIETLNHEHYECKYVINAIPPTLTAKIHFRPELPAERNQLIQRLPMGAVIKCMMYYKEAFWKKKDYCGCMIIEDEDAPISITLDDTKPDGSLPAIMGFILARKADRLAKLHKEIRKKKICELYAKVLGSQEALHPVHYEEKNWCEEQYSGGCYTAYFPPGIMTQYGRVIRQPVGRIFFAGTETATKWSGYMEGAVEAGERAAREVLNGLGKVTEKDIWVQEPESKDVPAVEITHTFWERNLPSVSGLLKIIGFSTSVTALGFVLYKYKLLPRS
- PROTOCOL_SUMMARY: MAO Assay (modified Promega MAO-Glo), MAO-A inhibition
- Assay type: biochemical
- DETAILS: substrate 10 μM, 1 hour at room temperature, cells printed as bound in μM

CCCCc1cn2nc(OC/C(=C/F)CN)ccc2n1 [Example 7, 4-methylbenzenesulfonate] = > 50 µM

Then there is this compound:
# return recorded IC50 for entry CCCCc1cn2cc(OC/C(=C/F)CNC(=O)OC(C)(C)C)cnc2n1 [Example 10] > 50 µM

---

Sequence of the target: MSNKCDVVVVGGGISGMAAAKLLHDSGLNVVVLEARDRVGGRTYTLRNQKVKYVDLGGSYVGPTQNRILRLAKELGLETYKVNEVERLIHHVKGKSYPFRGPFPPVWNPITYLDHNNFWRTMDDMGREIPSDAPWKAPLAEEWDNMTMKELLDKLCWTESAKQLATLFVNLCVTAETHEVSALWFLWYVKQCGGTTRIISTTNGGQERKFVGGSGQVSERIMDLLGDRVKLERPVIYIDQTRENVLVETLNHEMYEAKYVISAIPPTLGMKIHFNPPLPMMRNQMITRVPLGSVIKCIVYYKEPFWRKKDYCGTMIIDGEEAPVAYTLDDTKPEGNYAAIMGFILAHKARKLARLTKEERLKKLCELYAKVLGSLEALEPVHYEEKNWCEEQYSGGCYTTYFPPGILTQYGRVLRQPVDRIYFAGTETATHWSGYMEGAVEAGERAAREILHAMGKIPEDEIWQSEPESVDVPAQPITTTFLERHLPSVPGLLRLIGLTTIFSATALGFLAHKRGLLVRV
pIC50: −log10 of the molar value.
MEASURED_ATTRIBUTE: pIC50

Use the examples below as a reference point.
CCCCc1cn2cc(OC/C(=C/F)CNC(=O)OC(C)(C)C)cnc2n1 = 5.00 to 6.00
CCCCc1cc2cc(OC/C(=C/F)CN)ccn2n1 [Example 8, bis(4-methylbenzenesulfonate)] = 6.00 to 7.00
NC/C(=C/F)COc1ccc2nc(C3CCCC3)cn2c1 [Example 9, 4-methylbenzenesulfonate] = 5.00 to 6.00

# return recorded pIC50 for entry CCCCc1cn2cc(OC/C(=C/F)CN)ccc2n1 [Example 1, bis(4-methylbenzenesulfonate)] 5.00 to 6.00

# return recorded pIC50 for entry CCCCc1cn2ccc(OC/C(=C/F)CN)cc2n1 [Example 2, 4-methylbenzenesulfonate] 4.52 to 5.00

---

Target protein (sequence): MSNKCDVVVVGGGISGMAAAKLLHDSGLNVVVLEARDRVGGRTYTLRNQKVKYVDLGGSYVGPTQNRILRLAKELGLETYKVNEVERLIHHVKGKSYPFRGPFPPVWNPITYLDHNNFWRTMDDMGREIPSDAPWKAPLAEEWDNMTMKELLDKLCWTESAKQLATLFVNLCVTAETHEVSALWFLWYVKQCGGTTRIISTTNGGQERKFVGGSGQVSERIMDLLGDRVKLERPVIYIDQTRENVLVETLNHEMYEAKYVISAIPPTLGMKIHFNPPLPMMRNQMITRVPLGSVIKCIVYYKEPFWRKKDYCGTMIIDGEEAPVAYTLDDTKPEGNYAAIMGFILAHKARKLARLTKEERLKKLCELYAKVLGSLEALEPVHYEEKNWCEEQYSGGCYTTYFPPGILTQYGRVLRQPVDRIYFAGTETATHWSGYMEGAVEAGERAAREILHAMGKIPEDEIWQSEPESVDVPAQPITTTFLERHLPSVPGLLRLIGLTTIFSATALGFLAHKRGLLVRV
Recorded measurements of IC50, one per entry

Use the examples below as a reference point.
CCCCc1cn2cc(OC/C(=C\F)CN)ccc2n1 [Example 5, 4-methylbenzenesulfonate] = 1000 to 10000 nM
CCCCc1nc2ccc(OC/C(=C/F)CN)cn2n1 [Example 4, 4-methylbenzenesulfonate] = 100 to 1000 nM
CCCCc1nc2cc(OC/C(=C/F)CN)ccn2n1 [Example 3, 4-methylbenzenesulfonate] = 1000 to 10000 nM

Then there is this compound:
# return recorded IC50 for entry CCCCc1cn2nc(OC/C(=C/F)CN)ccc2n1 [Example 7, 4-methylbenzenesulfonate] 100 to 1000 nM
